From: patent US20210330611A1

# Tested on: primary rat microglia
# experimentDescription: Cell toxicity (dead cells, size <150 μm2) in coated fibrin (cFib) assay;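 note: share of dead cells sized under 150 µm2 at 10 µM in fibrin-stimulated microglia HTS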
# testContext: primary microglia HTS, fibrin stimulation, toxicity = cell size <150 μm2
Kindly supply the reported Fibrin % cell toxicity values for the records listed here.
Number first, unit second: that is the form wanted.

(Q) Hello, please tell me recorded Fibrin % cell toxicity for this one: O=C1Nc2ccc(Cl)cc2C(c2ccccc2Cl)=NC1O (centres unmarked) [Lorazepam]
(A) 1%

(Q) Return reported Fibrin % cell toxicity. Input molecule: CC#CCC(C)[C@H](O)/C=C/[C@@H]1[C@H]2C/C(=C/CCCC(=O)O)C[C@H]2C[C@H]1O (some centres unmarked) [Iloprost]
(A) 1%

(Q) Quote Fibrin % cell toxicity reported for C[C@H]1COc2c(N3CCN(C)CC3)c(F)cc3c(=O)c(C(=O)O)cn1c23 [Levofloxacin] please.
(A) 1%

(Q) Return Fibrin % cell toxicity for the following molecule: O=C(O)c1ccccc1Nc1cccc(C(F)(F)F)c1 [Flufenamic Acid]
(A) 0%

(Q) Please look at this molecule and report its Fibrin % cell toxicity: CCCCN1CCCC[C@H]1C(=O)Nc1c(C)cccc1C [Levobupivacaine]
(A) 1%
